# Tested on: ACHN renal
# TEST: NCI tumour cell line growth inhibition, 48 h
Listed here are molecules together with their documented TGI.

Some molecules with recorded TGI:
[
  {
    "MOLECULE": "Nc1c(C(=O)Nc2ccccc2)sc2nc3c(cc12)CCCC3",
    "TGI": "> 100 µM"
  },
  {
    "MOLECULE": "CCCCCCCCCC(CCCC(O)CC(=O)O)OC1OC(COC2OC(C)C(O)C(O)C2O)C(O)C(O)C1OC1OC(CO)C(O)C(O)C1OC1OC(C)C(O)C(O)C1O (stereo unspecified)",
    "TGI": "> 40 µM"
  },
  {
    "MOLECULE": "C=C(C(=O)O)[C@@H]1C[C@@H]2O[C@H]1CC(C)=CCC/C(C)=C/CC[C@@]2(C)O",
    "TGI": "> 100 µM"
  }
]

In: Report TGI for `CC(C)=CCC[C@H](C)[C@H]1CC[C@@H](C)c2cc(O)c(C)cc21` tested on ACHN renal.
Out: 30.6 µM

In: Short answer please: TGI, ACHN renal, entry `Cc1nc2cc(N)c(Cl)cc2[nH]1`
Out: > 100 µM

In: Give ACHN renal TGI for Cc1ccc(NC(=O)c2nc(S(C)=O)oc2-c2ccc(F)cc2)cc1Nc1nccc(-c2cccnc2)n1 (stereo unspecified)
Out: 3.1 µM

* * *

# Tested on: IGROV1 ovarian
# TEST: NCI tumour cell line growth inhibition, 48 h
REPORTED METRIC: TGI

Past entries and their recorded results:
[
  {
    "MOLECULE": "Nc1nc2c(c3cnccc13)C(c1cccc(Cl)c1)Cc1cnccc1-2 (stereo not drawn)",
    "TGI": "15.3 µM"
  },
  {
    "MOLECULE": "CC(=O)OCC1OC(Sc2ccccn2)C=CC1OC(C)=O (stereo not drawn)",
    "TGI": "> 100 µM"
  },
  {
    "MOLECULE": "O=C(/C=C/c1cccnc1)c1ccccc1O",
    "TGI": "50 µM"
  }
]

In: What value of TGI on IGROV1 ovarian does `COc1cc([C@@H]2c3cc4c(c(O)c3C[C@H]3COC(=O)[C@@H]32)OCO4)cc(OC)c1O` have?
Out: > 128 µM

In: Return TGI measured with IGROV1 ovarian given this molecule: CCN(CC)CC(O)C1CCC(c2ccccc2)CC1 (stereo not drawn)
Out: > 100 µM

In: Recall the recorded TGI for `O=c1/c(=C/c2ccc3c(c2)OCO3)sc2nnc(-c3ccco3)n12` with IGROV1 ovarian and state it.
Out: > 100 µM

* * *

# System: RPMI-8226 leukemia
# TEST: NCI tumour cell line growth inhibition, 48 h
REPORTED METRIC: TGI

[
  {
    "COMPOUND": "CCCCOC(=O)C1CN2C(=NC1(C(F)(F)F)C(F)(F)F)Sc1ccccc12 (stereo not given)",
    "TARGET SYSTEM": "RPMI-8226 leukemia",
    "REPORTED METRIC": "TGI",
    "REPORTED": "> 100 µM"
  },
  {
    "COMPOUND": "CC(=O)OC1COC(Nn2c(=O)[nH]c3ccccc3c2=O)C(OC(C)=O)C1OC(C)=O (stereo not given)",
    "TARGET SYSTEM": "RPMI-8226 leukemia",
    "REPORTED METRIC": "TGI",
    "REPORTED": "> 100 µM"
  },
  {
    "COMPOUND": "COC1(C)C=NCC(C)(C)NC(=O)C(C)(OC)C=NCC(C)(C)NC1=O (stereo not given)",
    "TARGET SYSTEM": "RPMI-8226 leukemia",
    "REPORTED METRIC": "TGI",
    "REPORTED": "> 10 µM"
  }
]

In: Consider the compound shown here: `COc1ccc([C@@H]2CC(=O)NCCCCNCCCN2)cc1` What is its recorded TGI?
Out: > 100 µM

In: Suppose we examine the compound `COc1cc(OC)nc(Nc2c(C#N)c3nc4ccccc4n3c3ccccc23)n1` ; what TGI value has been reported?
Out: > 100 µM

In: For the compound shown here, O=C1NN(c2ccccc2)C(=O)C2C3c4ccccc4C(c4ccccc43)C12 (stereo not given) , give the reported TGI.
Out: > 100 µM

In: Request the reported TGI associated with `Cc1cc(NCCCCCCNc2cc(C)nc3ccc(Cl)cc23)c2cc(Cl)ccc2n1`
Out: > 100 µM

In: Bench note: what TGI did `CCNc1ncnc2n[nH]nc12` show?
Out: > 100 µM

In: Bench note: what TGI did `O=C1C[C@H]2[C@H](c3ccc(Br)cc3)[C@H]3C(=O)c4ccccc4NC(=O)[C@@H]3[C@@]2(O)c2ccccc2N1` show?
Out: 62.4 µM

In: May I ask what TGI has been recorded for `CCSc1nc2n(c(=S)n1)CCN2C` ?
Out: 61.7 µM

In: Dear colleague, I am looking for the recorded TGI of the following compound: O=C(O)C(F)(OC(F)(F)C(F)(OC(F)(F)C(F)(F)C(F)(F)F)C(F)(F)F)C(F)(F)F (stereo not given)
Out: > 100 µM

In: Given `O=C1C(Cl)=C(Nc2cccc(O)c2)C(=O)N1c1cccc(Cl)c1Cl` , state its recorded TGI.
Out: 16.2 µM
